Just for reference, PubChem BioAssay AID1159580 is where these values come from.

Below, each entry is listed with its recorded normalized growth.
Assay: chemical genetic growth profiling, strain panel (AID 1159580);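 further: tested at 20 µM; growth read once vehicle control cultures reached saturation at 30 °C; 1 = growth at the plate median or of vehicle wells; lower values mean less growth of the strain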
Settings: S. cerevisiae deletion strains, growth OD, locus YER016W, strain bim1, stronger effect = lower value
Screen size: about 5,500 compounds; about 2,000 (36%) were called active. Another 18% or so got no clear call; they are omitted. The list shows a part of the results.
Kindly provide the number alone.

input: Complete the entry with normalized growth for COC(=O)C1=COC(OC2OC(CO)C(O)C(O)C2O)C2C(C)CC(=O)C12O (stereo not given)
output: 0.985

input: Complete the entry with normalized growth for OCC(O)Cc1ccc2c(c1)OCO2 (stereo not given)
output: 1

***
input: Complete the entry with normalized growth for O=C(/C=C/c1ccccc1)O[C@H]1C[C@@H](O)[C@]2(O)C=CO[C@@H](O[C@@H]3O[C@H](CO)[C@@H](O)[C@H](O)[C@H]3O)[C@H]12
output: 1.03

input: Complete the entry with normalized growth for Cc1cc(=O)c2c(O)c(C)c(O)cc2o1
output: 1.01

input: Complete the entry with normalized growth for C[N+](C)(C)CCOP(=O)([O-])OP(=O)(O)OC[C@H]1OC(n2ccc(N)nc2=O)[C@H](O)[C@@H]1O (stereo not given in full)
output: 0.985

input: Complete the entry with normalized growth for Cn1cc[nH]c1=S
output: 0.978

input: Complete the entry with normalized growth for O=C(O)C1CC([C@@H]2CCCCN2)CN2CCCCC12 (stereo not given in full)
output: 0.993

input: Complete the entry with normalized growth for COc1c(O)cc2oc3cc(O)c(CC=C(C)C)c(O)c3c(=O)c2c1CC=C(C)C
output: 0.969

input: Complete the entry with normalized growth for COc1cc(O)c2c(=O)cc(C)oc2c1CC=C(C)C
output: 0.965

input: Complete the entry with normalized growth for CC(C)N(C(=O)CCl)c1ccccc1
output: 1.01

* * *

Assay: chemical genetic growth profiling, strain panel (AID 1159580)
Conditions: S. cerevisiae deletion strains, growth OD, locus YJL129C, strain trk1
About 2,000 (36%) of roughly 5,500 compounds were called active. About 18% were inconclusive and are not listed. Rule as the data show it: active = normalized growth mostly below about 0.91 (no sharp cut-off); inconclusive = no clear call, values can overlap the other calls; inactive = mostly above about 0.92. The list shows a part of the results.
Select the matching outcome among t for active, f for inactive

These solved cases illustrate the format of a correct answer.
input: Please let me know the test result on file for CN1CCCC(n2nc(Cc3ccc(Cl)cc3)c3ccccc3c2=O)CC1 (configuration not stated) .
output: f

input: Please let me know the test result on file for COc1cc2c(cc1OC)C(=O)C(CC1CCN(Cc3ccccc3)CC1)C2 (configuration not stated) .
output: f

input: Please let me know the test result on file for NC[C@@H]1O[C@H](O[C@@H]2[C@@H](CO)OC(O[C@@H]3[C@@H](O)[C@H](N)C[C@H](N)[C@H]3OC3O[C@H](CN)[C@@H](O)[C@H](O)[C@H]3N)[C@@H]2O)[C@H](N)[C@@H](O)[C@@H]1O (some centres not stated) .
output: f

***
input: Please let me know the test result on file for CC(=O)O[C@]1(C(C)=O)CCC2C3C[C@H](C)C4=CC(=O)CC[C@]4(C)C3CC[C@@]21C (some centres not stated) .
output: f

input: Please let me know the test result on file for COc1cccc([C@]2(O)CCCC[C@H]2CN(C)C)c1 .
output: f

input: Please let me know the test result on file for COc1ccc2c(c1)OC[C@@H](Cc1ccc(OC)c(OC)c1)[C@@H]2O .
output: f

input: Please let me know the test result on file for COc1ccc(-c2cc(=O)c3c(O)cc(OC)c(OC)c3o2)c(OC)c1 .
output: f

input: Please let me know the test result on file for COc1ccc2cc1Oc1ccc(cc1)C[C@H]1c3cc(c(OC)cc3CCN1C)Oc1c(OC)c(OC)cc3c1[C@H](C2)N(C)CC3 .
output: f

input: Please let me know the test result on file for O=C(O)c1cc(=O)c2ccc(Cl)cc2[nH]1 .
output: f

input: Please let me know the test result on file for COc1cc(O)c2c(=O)cc(C)oc2c1CC=C(C)C .
output: t

input: Please let me know the test result on file for COc1ccc2cc1Oc1ccc(cc1)C[C@H]1c3c(cc4c(c3Oc3cc5c(cc3OC)CCN(C)[C@@H]5C2)OCO4)CCN1C .
output: f

input: Please let me know the test result on file for CC(C)[C@H](N)C(=O)OCCOCn1cnc2c(=O)[nH]c(N)nc21 .
output: f

input: Please let me know the test result on file for NC(=O)N1c2ccccc2CC(=O)c2ccccc21 .
output: f

input: Please let me know the test result on file for C[CH2][Hg][S]c1ccccc1C(=O)O .
output: t

input: Please let me know the test result on file for OCC(O)Cc1ccc2c(c1)OCO2 (configuration not stated) .
output: f

input: Please let me know the test result on file for COc1ccc(-c2coc3c(O)c(OC)ccc3c2=O)cc1 .
output: t

input: Please let me know the test result on file for CCN(CC)C(=S)SSC(=S)N(CC)CC .
output: t

* * *

Assay: chemical genetic growth profiling, strain panel (AID 1159580)
Conditions: S. cerevisiae deletion strains, growth OD, locus YCR088W, strain abp1, stronger effect = lower value
The whole screen tested about 5,500 compounds, of which about 2,000 (36%) were called active. Roughly 18% stayed inconclusive and do not appear here. Some of the results follow.
Below, each entry is listed with its recorded normalized growth.
Kindly provide the number alone.

Worked cases, answers included:
input: Complete the entry with normalized growth for C[C@@H](N)CO
output: 0.993

input: Complete the entry with normalized growth for O=C(/C=C/C=C/c1ccc2c(c1)OCO2)N1CCCCC1
output: 0.945

input: Complete the entry with normalized growth for CC(C)(CO)C(O)C(=O)NCCCO (configuration not stated)
output: 1.01

input: Complete the entry with normalized growth for N#Cc1c(Cl)c(Cl)c(Cl)c(C#N)c1Cl
output: 0.0707

input: Complete the entry with normalized growth for COc1cc(O)c(C(=O)c2ccccc2)cc1O
output: 1

***
input: Complete the entry with normalized growth for COc1ccc(C(=O)c2ccccc2)c(O)c1
output: 0.833

input: Complete the entry with normalized growth for CC(C)(C)CC(C)(C)c1ccc(OCCOCC[N+](C)(C)Cc2ccccc2)cc1
output: 0.0617

* * *

Test: chemical genetic growth profiling, strain panel (AID 1159580);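 further: tested at 20 µM; growth read once vehicle control cultures reached saturation at 30 °C; 1 = growth at the plate median or of vehicle wells; lower values mean less growth of the strain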
Conditions: S. cerevisiae deletion strains, growth OD, locus YKL068W, stronger effect = lower value
The whole screen tested about 5,500 compounds, of which about 2,000 (36%) were called active. Another 18% or so got no clear call; they are omitted. The list shows a part of the results.
Below, each entry is listed with its recorded normalized growth.
Kindly provide the number alone.

input: Complete the entry with normalized growth for Cc1cc(=O)c2c(O)cc(O)c(C)c2o1
output: 0.985

input: Complete the entry with normalized growth for Cc1cc(=O)c2c(O)c(C)c(O)cc2o1
output: 1

input: Complete the entry with normalized growth for NC(N)=NOCC[C@H](N)C(=O)O
output: 0.978

***
input: Complete the entry with normalized growth for C=C1CC[C@H](O)C/C1=C/C=C1\CCC[C@]2(C)C([C@H](C)/C=C/[C@H](C)C(C)C)CC[C@@H]12 (stereo partly specified)
output: 0.994

input: Complete the entry with normalized growth for COc1cc(O)c2c(=O)cc(C)oc2c1CC=C(C)C
output: 0.945

input: Complete the entry with normalized growth for S=C=NCc1ccccc1
output: 0.107

* * *

Test: chemical genetic growth profiling, strain panel (AID 1159580);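 further: tested at 20 µM; growth read once vehicle control cultures reached saturation at 30 °C; 1 = growth at the plate median or of vehicle wells; lower values mean less growth of the strain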
Details: S. cerevisiae deletion strains, growth OD, locus YLR113W, strain HOG1, stronger effect = lower value
Out of some 5,500 compounds screened, about 2,000 (36%) were called active. Another 18% or so got no clear call; they are omitted. The list shows a part of the results.
Below, each entry is listed with its recorded normalized growth.
Kindly provide the number alone.

Worked cases, answers included:
input: Complete the entry with normalized growth for COc1ccc(C(=O)c2ccccc2O)c(O)c1
output: 0.907

input: Complete the entry with normalized growth for COc1ccc(C(C)=O)c(O)c1
output: 0.96

input: Complete the entry with normalized growth for CCOC(=O)c1ncn2c1CN(C)C(=O)c1cc(F)ccc1-2
output: 1.01

Then this compound:
input: Complete the entry with normalized growth for NCCCN=c1ccc2c3c1c(O)c1c(O)ccc(=O)c1c3[nH]n2CCNCCO
output: 0.982

* * *

Assay: chemical genetic growth profiling, strain panel (AID 1159580);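 further: tested at 20 µM; growth read once vehicle control cultures reached saturation at 30 °C; 1 = growth at the plate median or of vehicle wells; lower values mean less growth of the strain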
Conditions: S. cerevisiae deletion strains, growth OD, locus YOR001W, strain rrp6, stronger effect = lower value
Out of some 5,500 compounds screened, about 2,000 (36%) were called active. Not shown: some 18% with an inconclusive outcome. The list shows a part of the results.
Below, each entry is listed with its recorded normalized growth.
Kindly provide the number alone.

Worked cases, answers included:
input: Complete the entry with normalized growth for CC[C@H]1OC(=O)C[C@@H](O)[C@H](C)[C@@H](O[C@@H]2O[C@H](C)[C@@H](O[C@H]3C[C@@](C)(O)[C@@H](O)[C@H](C)O3)[C@H](N(C)C)[C@H]2O)[C@@H](CC=O)C[C@@H](C)C(=O)/C=C/C(C)=C/[C@@H]1CO[C@@H]1O[C@H](C)[C@@H](O)[C@@H](OC)[C@H]1OC
output: 0.993

input: Complete the entry with normalized growth for Cc1c(N(C)C)c(=O)n(-c2ccccc2)n1C
output: 0.971

***
input: Complete the entry with normalized growth for C/C=C(/C(=C/C)c1ccc(O)cc1)c1ccc(O)cc1
output: 0.967

input: Complete the entry with normalized growth for COc1ccc(-c2coc3c(O)c(OC)ccc3c2=O)cc1
output: 0.974

input: Complete the entry with normalized growth for CC(C)[N+](C)(CCOC(=O)C1c2ccccc2Oc2ccccc21)C(C)C
output: 0.976

input: Complete the entry with normalized growth for CCCCCC(=O)O[C@]1(C(C)=O)CCC2C3CCC4=CC(=O)CC[C@]4(C)C3CC[C@@]21C (stereo not given in full)
output: 1.01

input: Complete the entry with normalized growth for CC(=O)O[C@]1(C(C)=O)CCC2C3C[C@H](C)C4=CC(=O)CC[C@]4(C)C3CC[C@@]21C (stereo not given in full)
output: 1.01
